# Test system: SK-LMS-1 (Other Solid Carcinomas)
# MEASUREMENT DESCRIPTION: combination Emax (second highest fraction inhibited in the dose matrix, 72 h); higher = more inhibition; extreme values may be limits of the assay
If the reported combination Emax equals or exceeds 0.8, assign satisfied. If not, assign not satisfied.

NC1(C(=O)N[C@@H](CCO)c2ccc(Cl)cc2)CCN(c2ncnc3[nH]ccc23)CC1 [Capivasertib] + Cn1cnc2c(F)c(Nc3ccc(Br)cc3Cl)c(C(=O)NOCCO)cc21 [Selumetinib] (first compound max 10 µM, 7x7, partner max 10 µM)
not satisfied
N#Cc1cnc(Nc2cc(NC[C@H]3CNCCO3)c(C(F)(F)F)cn2)cn1 [SRA737] + Nc1ccn([C@@H]2O[C@H](CO)[C@@H](O)C2(F)F)c(=O)n1 [Gemcitabine] (first compound max 10 µM, 7x7, partner max 0.3 µM)
satisfied
COc1cccc(OCCCN)c1-c1cc(Nc2cnc(C#N)cn2)n[nH]1 [Prexasertib] + O=C(c1cc(Cc2n[nH]c(=O)c3ccccc23)ccc1F)N1CCN(C(=O)C2CC2)CC1 [Olaparib] (first compound max 1 µM, 7x7, partner max 10 µM)
not satisfied
CC1(C)CCC(CN2CCN(c3ccc(C(=O)NS(=O)(=O)c4ccc(NCC5CCOCC5)c([N+](=O)[O-])c4)c(Oc4cnc5[nH]ccc5c4)c3)CC2)=C(c2ccc(Cl)cc2)C1 [Venetoclax] + C1CN(CCC1(C(=O)N[C@@H](CCO)C2=CC=C(C=C2)Cl)N)C3=NC=NC4=C3C=CN4 [Capivasertib] (first compound max 1 µM, 7x7, partner max 3 µM)
not satisfied
C=CCn1c(=O)c2cnc(Nc3ccc(N4CCN(C)CC4)cc3)nc2n1-c1cccc(C(C)(C)O)n1 [AZD1775] + CCc1c2c(nc3ccc(O)cc13)-c1cc3c(c(=O)n1C2)COC(=O)[C@]3(O)CC [SN-38] (first compound max 1 µM, partner max 0.3 µM)
satisfied

Next compound, please.
Q: Please check the record C[C@@H](c1ccc2nccn2c1)n1nnc2ncc(-c3cnn(C)c3)nc21 [Savolitinib] + Cc1c2c(nn1C)CSCc1cc(n(C)n1)CSc1cc(c3ccccc3c1)OCCCc1c(C(=O)O)n(C)c3c-2c(Cl)ccc13 [AZD5991] (first compound max 1 µM, 7x7, partner max 1 µM) and state if its combination Emax is at or above 0.8.
A: not satisfied

---

# Test system: YT (Other Blood Carcinomas)
# MEASUREMENT DESCRIPTION: Bliss excess, mean over the matrix (fraction); higher = more synergy
The class of a record is decided solely by its measured Bliss excess; consult low (below -0.05), medium (-0.05 to below -0.002), high (-0.002 or more)

Example entries and their recorded answers appear below.
CN(CCO)CC[C@H](CSc1ccccc1)Nc1ccc(S(=O)(=O)NC(=O)c2ccc(N3CCC([C@@H](O)c4ccccc4-c4ccc(Cl)cc4)CC3)cc2)cc1S(=O)(=O)C(F)(F)F [AZD4320] + CN(C)CCCOc1ccc(-c2ccc3ncc4c(c3c2)n(C2CCOCC2)c(=O)n4C)cn1 [AZD0156] (first compound max 1 µM, 7x7, partner max 1 µM)
medium
Cc1c2c(nn1C)CSCc1cc(n(C)n1)CSc1cc(c3ccccc3c1)OCCCc1c(C(=O)O)n(C)c3c-2c(Cl)ccc13 [AZD5991] + CC1(C)CCC(CN2CCN(c3ccc(C(=O)NS(=O)(=O)c4ccc(NCC5CCOCC5)c([N+](=O)[O-])c4)c(Oc4cnc5[nH]ccc5c4)c3)CC2)=C(c2ccc(Cl)cc2)C1 [Venetoclax] (first compound max 1 µM, 7x7, partner max 1 µM)
high
CN(CCO)CC[C@H](CSc1ccccc1)Nc1ccc(S(=O)(=O)NC(=O)c2ccc(N3CCC([C@@H](O)c4ccccc4-c4ccc(Cl)cc4)CC3)cc2)cc1S(=O)(=O)C(F)(F)F [AZD4320] + Cc1cc2ncnn2cc1Nc1ncc2c(n1)n(C1CCOCC1)c(=O)n2C [AZD7648] (first compound max 1 µM, 7x7, partner max 10 µM)
high
Cc1c2c(nn1C)CSCc1cc(n(C)n1)CSc1cc(c3ccccc3c1)OCCCc1c(C(=O)O)n(C)c3c-2c(Cl)ccc13 [AZD5991] + Nc1ccn([C@@H]2O[C@H](CO)[C@@H](O)C2(F)F)c(=O)n1 [Gemcitabine] (first compound max 1 µM, 7x7, partner max 0.3 µM)
high
C[C@@H](Oc1cc(-c2cnn(C3CCNCC3)c2)cnc1N)c1c(Cl)ccc(F)c1Cl [Crizotinib] + Cn1cnc2c(F)c(Nc3ccc(Br)cc3Cl)c(C(=O)NOCCO)cc21 [Selumetinib] (first compound max 10 µM, 7x7, partner max 10 µM)
low
CS(=O)(=O)CCNCc1ccc(-c2ccc3ncnc(Nc4ccc(OCc5cccc(F)c5)c(Cl)c4)c3c2)o1 [Lapatinib] + Cn1cnc2c(F)c(Nc3ccc(Br)cc3Cl)c(C(=O)NOCCO)cc21 [Selumetinib] (first compound max 10 µM, 7x7, partner max 10 µM)
high

Q: For COc1nnc2ccc(N3CCC(c4ccc(OCCN5CCN(C)C(=O)[C@H]5C)cc4)CC3)nn12 [AZD5153] + C[C@@H]1COCCN1C2=NC(=NC(=C2)C3(CC3)[S@](=N)(=O)C)C4=C5C=CNC5=NC=C4 [AZD6738] (first compound max 1 µM, 7x7, partner max 10 µM) , which Bliss excess bin applies?
A: low

Q: # bin lookup: classify CN(CCO)CC[C@H](CSc1ccccc1)Nc1ccc(S(=O)(=O)NC(=O)c2ccc(N3CCC([C@@H](O)c4ccccc4-c4ccc(Cl)cc4)CC3)cc2)cc1S(=O)(=O)C(F)(F)F [AZD4320] + Cn1cnc2c(F)c(Nc3ccc(Br)cc3Cl)c(C(=O)NOCCO)cc21 [Selumetinib] (first compound max 1 µM, 7x7, partner max 3 µM) by its Bliss excess
A: low

Q: # bin label for COc1cccc(OCCCN)c1-c1cc(Nc2cnc(C#N)cn2)n[nH]1 [Prexasertib] + CCc1c2c(nc3ccc(O)cc13)-c1cc3c(c(=O)n1C2)COC(=O)[C@]3(O)CC [SN-38] (first compound max 1 µM, 7x7, partner max 0.3 µM)
A: low

Q: Each compound maps to one class by Bliss excess. Which class for Cc1c2c(nn1C)CSCc1cc(n(C)n1)CSc1cc(c3ccccc3c1)OCCCc1c(C(=O)O)n(C)c3c-2c(Cl)ccc13 [AZD5991] + CC(=O)O[C@H]1C(=O)[C@@]2(C)[C@H]([C@H](OC(=O)c3ccccc3)[C@]3(O)C[C@H](OC(=O)[C@H](O)[C@@H](NC(=O)c4ccccc4)c4ccccc4)C(C)=C1C3(C)C)[C@]1(OC(C)=O)CO[C@@H]1C[C@@H]2O [Paclitaxel] (first compound max 1 µM, 7x7, partner max 3 µM) ?
A: medium

---

Bliss excess values by entry
# Test system: WSU-DLCL2 (B-Cell Non-Hodgkin's Lymphoma)
# MEASUREMENT DESCRIPTION: Bliss excess, mean over the matrix (fraction); higher = more synergy
API note: the answer field is a bare number with no unit suffix.

CN(CCO)CC[C@H](CSc1ccccc1)Nc1ccc(S(=O)(=O)NC(=O)c2ccc(N3CCC([C@@H](O)c4ccccc4-c4ccc(Cl)cc4)CC3)cc2)cc1S(=O)(=O)C(F)(F)F [AZD4320] + C[C@@H](Nc1cc(F)cc(F)c1)c1cc(C(=O)N(C)C)cc2c(=O)cc(N3CCOCC3)oc12 [AZD8186] (first compound max 1 µM, 7x7, partner max 3 µM)
0.0852

Next item in the queue.
Q: # get_value(readout='Bliss excess', item= Cc1c2c(nn1C)CSCc1cc(n(C)n1)CSc1cc(c3ccccc3c1)OCCCc1c(C(=O)O)n(C)c3c-2c(Cl)ccc13 [AZD5991] + CS(=O)(=O)CCNCc1ccc(-c2ccc3ncnc(Nc4ccc(OCc5cccc(F)c5)c(Cl)c4)c3c2)o1 [Lapatinib] (first compound max 1 µM, 7x7, partner max 10 µM) )
A: 0.0601

---

# Test system: CS1 (Chondrosarcoma)
# MEASUREMENT DESCRIPTION: Bliss excess, mean over the matrix (fraction); higher = more synergy
Collected Bliss excess values appear next to each entry.

CCN(CCO)CCCOc1ccc2c(Nc3cc(CC(=O)Nc4cccc(F)c4)[nH]n3)ncnc2c1 [AZD2811] + C[C@@H]1COCCN1C2=NC(=NC(=C2)C3(CC3)[S@](=N)(=O)C)C4=C5C=CNC5=NC=C4 [AZD6738] (first compound max 1 µM, 7x7, partner max 10 µM)
-0.0842
CC1(C)CCC(CN2CCN(c3ccc(C(=O)NS(=O)(=O)c4ccc(NCC5CCOCC5)c([N+](=O)[O-])c4)c(Oc4cnc5[nH]ccc5c4)c3)CC2)=C(c2ccc(Cl)cc2)C1 [Venetoclax] + C[C@@H](Nc1cc(F)cc(F)c1)c1cc(C(=O)N(C)C)cc2c(=O)cc(N3CCOCC3)oc12 [AZD8186] (first compound max 1 µM, 7x7, partner max 3 µM)
-0.0923

Now, please, on to the next compound.
Q: Find the recorded Bliss excess belonging to CC1(C)CCC(CN2CCN(c3ccc(C(=O)NS(=O)(=O)c4ccc(NCC5CCOCC5)c([N+](=O)[O-])c4)c(Oc4cnc5[nH]ccc5c4)c3)CC2)=C(c2ccc(Cl)cc2)C1 [Venetoclax] + Cn1cnc2c(F)c(Nc3ccc(Br)cc3Cl)c(C(=O)NOCCO)cc21 [Selumetinib] (first compound max 1 µM, 7x7, partner max 3 µM) and report it.
A: -0.0498
